# EXPERIMENTAL DETAILS: ATG_PPRE_CIS: Attagene CIS-FACTORIAL HepG2 Assay for human Peroxisome Proliferator-activated Response Element (PPRE) (AID 2282958)
# EXPERIMENTAL CONDITIONS: HepG2 PPRE cis-element reporter, Attagene transcription factor profiling; actives raise or lower the signal
Activity calls are given as the source filed them. The calls were made as follows: active = hit-call score of the fitted dose curve at least 0.9, where 1 is the maximum; inactive = score below 0.9.
Classes used: label 1 = active, label 0 = inactive

- COMPOUND: "CCC(C)CO (centres undefined)"
  GROUP: "label 0"
- COMPOUND: "C=CCOC(=O)CC(C)C"
  GROUP: "label 0"
- COMPOUND: "N#Cc1ccccc1O"
  GROUP: "label 0"
- COMPOUND: "CC(C)C(=O)OCc1ccccc1"
  GROUP: "label 0"
- COMPOUND: "Nc1c(Br)cc([N+](=O)[O-])cc1Br"
  GROUP: "label 0"
- COMPOUND: "CCOC(=O)CC(=O)C(F)(F)C(F)(F)F"
  GROUP: "label 0"
- COMPOUND: "CC(C)Nc1ccc(NC(C)C)c2c1C(=O)c1ccccc1C2=O"
  GROUP: "label 0"
- COMPOUND: "CCN=C1C=CC(=C(c2ccc(N(CC)CC)cc2)c2ccc(N(CC)CC)cc2)c2ccccc21"
  GROUP: "label 0"
- COMPOUND: "CCCCCCCCCCCCCCCCC"
  GROUP: "label 0"
- COMPOUND: "CCc1cccc(C)c1N(C(=O)C(=O)O)C(C)COC (centres undefined)"
  GROUP: "label 0"
- COMPOUND: "O=C=Nc1cccc2c(N=C=O)cccc12"
  GROUP: "label 0"
- COMPOUND: "CN(N=O)C(=O)N[C@@H]1[C@@H](O)[C@H](O)[C@@H](CO)O[C@@H]1O"
  GROUP: "label 0"
- COMPOUND: "O=C=NCc1cccc(CN=C=O)c1"
  GROUP: "label 0"
- COMPOUND: "O=C(Cl)c1ccc(Cl)cc1Cl"
  GROUP: "label 0"
- COMPOUND: "OCC(F)(F)C(F)(F)C(F)(F)CO"
  GROUP: "label 0"
- COMPOUND: "CCOCN(C(=O)CS(=O)(=O)O)c1c(C)cccc1CC"
  GROUP: "label 0"
- COMPOUND: "CCc1ccc(C)nc1"
  GROUP: "label 0"
- COMPOUND: "CN(C(=O)C(F)(F)C(F)(F)C(F)(F)F)[Si](C)(C)C"
  GROUP: "label 0"
- COMPOUND: "CC(=O)C=O"
  GROUP: "label 0"
- COMPOUND: "COC(F)(C(F)F)C(F)(F)F (centres undefined)"
  GROUP: "label 0"
- COMPOUND: "NC(=O)C(F)(F)C(F)(F)C(F)(F)C(F)F"
  GROUP: "label 0"
- COMPOUND: "CCCCCCCCCCCC(=O)Cl"
  GROUP: "label 1"
- COMPOUND: "CCCCCCCCCc1ccc(OCCO)cc1"
  GROUP: "label 0"
- COMPOUND: "Cc1cnccn1"
  GROUP: "label 0"
- COMPOUND: "Cc1ccc(S(=O)(=O)C(I)I)cc1"
  GROUP: "label 1"
- COMPOUND: "CC(C)CCCC(C)CCO (centres undefined)"
  GROUP: "label 0"
- COMPOUND: "Cc1ccc(O)c(-n2nc3ccccc3n2)c1"
  GROUP: "label 1"
- COMPOUND: "O=C(c1ccccc1)c1ccc(O)cc1O"
  GROUP: "label 0"
- COMPOUND: "C[Si](C)O[Si](C)C"
  GROUP: "label 0"
- COMPOUND: "C=CC(=O)OCC(F)(F)C(F)(F)C(F)(F)COC(=O)C=C"
  GROUP: "label 0"
- COMPOUND: "O=C1c2c(O)ccc(Nc3ccc(CCO)cc3)c2C(=O)c2c([N+](=O)[O-])ccc(O)c21"
  GROUP: "label 1"
- COMPOUND: "CC1CCCCC1"
  GROUP: "label 0"
- COMPOUND: "C#CC(O)CCC (centres undefined)"
  GROUP: "label 0"
- COMPOUND: "Cc1cc(=O)[nH]c(C(C)C)n1"
  GROUP: "label 0"
- COMPOUND: "O=C(O)CCC(F)(F)C(F)(F)C(F)(F)C(F)(F)C(F)(F)C(F)(F)C(F)(F)F"
  GROUP: "label 1"
- COMPOUND: "O=C(c1ccccc1)c1ccc(Cl)cc1"
  GROUP: "label 0"
- COMPOUND: "OCCCC(F)(F)C(F)(F)C(F)(F)C(F)(F)C(F)(F)C(F)(F)C(F)(F)C(F)(F)F"
  GROUP: "label 1"
- COMPOUND: "C=C(C)CCCC"
  GROUP: "label 0"
- COMPOUND: "OCCCCC(F)(F)C(F)(F)C(F)(F)C(F)(F)F"
  GROUP: "label 0"
- COMPOUND: "Cc1ccc2c(c1)OCC(=O)CO2"
  GROUP: "label 0"
- COMPOUND: "CCOC(=O)C1CC(=O)C(=C(O)C2CC2)C(=O)C1 (centres undefined)"
  GROUP: "label 0"
- COMPOUND: "Nc1cccnc1N"
  GROUP: "label 0"
- COMPOUND: "c1ccc(C[P+](c2ccccc2)(c2ccccc2)c2ccccc2)cc1"
  GROUP: "label 0"
- COMPOUND: "O=C(O)C(F)(F)OC(F)(F)C(F)(F)OC(F)(F)C(F)(F)OC(F)(F)F"
  GROUP: "label 1"
- COMPOUND: "NC(O)(C(F)(F)F)C(F)(F)F"
  GROUP: "label 0"
- COMPOUND: "CNS(=O)(=O)C(F)(F)C(F)(F)C(F)(F)C(F)(F)C(F)(F)C(F)(F)C(F)(F)C(F)(F)F"
  GROUP: "label 0"
- COMPOUND: "CSc1ccc(Cl)cc1"
  GROUP: "label 0"
- COMPOUND: "Nc1cc([N+](=O)[O-])cc(Cl)c1O"
  GROUP: "label 0"
- COMPOUND: "CCCCOC(=O)[C@H](C)O"
  GROUP: "label 0"
- COMPOUND: "Oc1ccc(C2(c3ccc(O)c(C4CCCCC4)c3)CCCCC2)cc1C1CCCCC1"
  GROUP: "label 0"
- COMPOUND: "CC1=CC2C3C=CC(C3)C2C1C (centres undefined)"
  GROUP: "label 0"
- COMPOUND: "CCC(=O)OC(C)c1ccccc1 (centres undefined)"
  GROUP: "label 0"
- COMPOUND: "Cc1cc(O)c(C(C)(C)C)cc1C(C)(C)C"
  GROUP: "label 0"
- COMPOUND: "CCOC(OCC)OCC"
  GROUP: "label 0"
